B1: DCAF4 (parent)
chain: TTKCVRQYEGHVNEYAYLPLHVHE

# Variants of: B1
# MEASUREMENT_NOTES: protein stability index of a GFP-peptide fusion (GPS, HEK-293T) (PSI 1-6); higher = more stable;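 also: lentivirally expressed fusions sorted by FACS into six bins by GFP to DsRed ratio, PSI derived from sequencing read proportions per bin multiplied by bin number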
# PARTICULARS: c terminus: a fixed tail appended
// label = satisfied if protein stability index is not less than 2, otherwise not satisfied

Sample answers from the record:
# MUTATION_NOTATION, QUALITATIVE_LABEL
records = [
    ("V5F", "satisfied"),
    ("Y17R", "satisfied"),
    ("C4P", "satisfied"),
    ("H21N", "satisfied"),
    ("T2V", "satisfied"),
    ("Q7Y", "not satisfied"),
]

Prompt line: Does E14D have a reported protein stability index of at least 2?
Response line: satisfied

Prompt line: Does Y15K have a reported protein stability index of at least 2?
Response line: satisfied

Prompt line: Does C4I have a reported protein stability index of at least 2?
Response line: satisfied

Prompt line: Does V22I have a reported protein stability index of at least 2?
Response line: satisfied

Prompt line: Does A16D have a reported protein stability index of at least 2?
Response line: satisfied

Prompt line: Does K3G have a reported protein stability index of at least 2?
Response line: satisfied

Prompt line: Does H21Y have a reported protein stability index of at least 2?
Response line: not satisfied

Prompt line: Does L20V have a reported protein stability index of at least 2?
Response line: satisfied

Prompt line: Does C4R have a reported protein stability index of at least 2?
Response line: satisfied

Prompt line: Does C4L have a reported protein stability index of at least 2?
Response line: satisfied

Prompt line: Does H21S have a reported protein stability index of at least 2?
Response line: satisfied

Prompt line: Does E9F have a reported protein stability index of at least 2?
Response line: not satisfied

Prompt line: Does P19E have a reported protein stability index of at least 2?
Response line: not satisfied

Prompt line: Does P19F have a reported protein stability index of at least 2?
Response line: not satisfied

Prompt line: Does A16R have a reported protein stability index of at least 2?
Response line: satisfied

Prompt line: Does V5M have a reported protein stability index of at least 2?
Response line: satisfied

Prompt line: Does T2W have a reported protein stability index of at least 2?
Response line: satisfied

Prompt line: Does K3A have a reported protein stability index of at least 2?
Response line: satisfied

Prompt line: Does N13Y have a reported protein stability index of at least 2?
Response line: satisfied
